Sourced from paper PMC10786891

- subject of test: T1, EsCas13d, nuclease-dead (Eubacterium siraeum, UniProt B0MS50, R295A;H300A;R849A;H854A)
- T1 sequence: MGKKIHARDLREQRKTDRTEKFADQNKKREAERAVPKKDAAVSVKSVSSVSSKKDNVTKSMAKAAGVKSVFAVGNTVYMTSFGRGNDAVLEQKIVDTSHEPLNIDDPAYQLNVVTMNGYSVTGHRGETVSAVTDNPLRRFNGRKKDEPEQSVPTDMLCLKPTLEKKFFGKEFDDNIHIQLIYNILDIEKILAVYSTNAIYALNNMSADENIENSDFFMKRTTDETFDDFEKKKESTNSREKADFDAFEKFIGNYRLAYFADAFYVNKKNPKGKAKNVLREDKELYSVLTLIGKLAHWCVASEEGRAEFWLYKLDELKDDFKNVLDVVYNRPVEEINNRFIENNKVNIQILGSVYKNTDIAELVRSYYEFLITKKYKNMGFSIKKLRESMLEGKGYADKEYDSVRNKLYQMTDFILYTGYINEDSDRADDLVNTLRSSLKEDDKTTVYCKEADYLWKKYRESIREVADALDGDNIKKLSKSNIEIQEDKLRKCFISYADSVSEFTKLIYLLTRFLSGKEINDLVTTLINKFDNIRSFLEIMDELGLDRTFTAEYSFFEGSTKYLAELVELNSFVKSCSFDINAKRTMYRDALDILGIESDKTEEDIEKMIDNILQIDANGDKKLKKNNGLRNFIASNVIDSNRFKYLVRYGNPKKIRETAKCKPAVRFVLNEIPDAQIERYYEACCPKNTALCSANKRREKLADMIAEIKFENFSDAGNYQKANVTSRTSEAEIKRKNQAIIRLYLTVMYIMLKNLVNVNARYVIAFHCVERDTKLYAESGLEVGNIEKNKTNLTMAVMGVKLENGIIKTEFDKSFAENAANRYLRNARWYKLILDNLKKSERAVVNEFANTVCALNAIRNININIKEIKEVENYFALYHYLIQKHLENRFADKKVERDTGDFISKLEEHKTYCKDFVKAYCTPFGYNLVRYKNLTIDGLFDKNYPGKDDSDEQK
- protocol details: crRNA (strand 1, pre-loaded); Mg2+; 40 mM Tris-HCl pH 7.5, 150 mM NaCl, 6 mM MgCl2, 1 mM DTT, 0.1% Tween-20, 0.2 mg/ml BSA; 25 C; 10 min per concentration, then washed
- experimental setup: tags: His6-TwinStrep-SUMO cleaved; N-terminal SNAP kept (SNAP-Surface 488); label: 3' end held by stalled T7 RNA polymerase
Below is a list of entries, each paired with its recorded Kd value.
Numbers only; they are read as µM.

binder="target 1 U11G,G12C (mixed) RNA 1: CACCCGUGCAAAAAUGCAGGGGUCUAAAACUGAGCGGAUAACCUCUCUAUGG RNA 2: GGGAAUGGAUCCACAUCUACGAAUUCGUACCAUAGAGAGCGUAUCCGCUCACCGAGAUCGGAAGAGCACACGU" measurement_unit=µM observed_value=0.017

# input Item under review: target 1 insG 3' of 8,insG 3' of 2 (mixed) RNA 1: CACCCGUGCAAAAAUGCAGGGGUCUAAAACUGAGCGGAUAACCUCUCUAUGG RNA 2: GGGAAUGGAUCCACAUCUACGAAUUCGUACCAUAGAGAGGUUAUGCCGCUCGACCGAGAUCGGAAGAGCACACGU . Reported Kd?
# output 0.0131

# input Item under review: target 1 MT 5'PFS GUG 3'PFS AGG (mixed) RNA 1: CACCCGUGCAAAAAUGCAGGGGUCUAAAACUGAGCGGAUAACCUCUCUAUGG RNA 2: GGGAAUGGAUCCACAUCUACGAAUUCGUGCCAUAGAGAGGUUAUCCGCUCAAGGAGAUCGGAAGAGCACACGU . Reported Kd?
# output 0.0287

# input Item under review: target 1 insU 3' of 6,insU 3' of 5 (mixed) RNA 1: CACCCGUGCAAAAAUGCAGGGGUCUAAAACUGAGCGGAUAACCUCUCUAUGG RNA 2: GGGAAUGGAUCCACAUCUACGAAUUCGUACCAUAGAGAGGUUAUCCUGUCUCACCGAGAUCGGAAGAGCACACGU . Reported Kd?
# output 0.0143

# input Item under review: target 3 insG 3' of 8,insG 3' of 2 (mixed) RNA 1: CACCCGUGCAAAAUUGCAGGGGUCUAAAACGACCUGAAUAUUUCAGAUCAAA RNA 2: GGGAAUGGAUCCACAUCUACGAAUUCGUUUUUGAUCUGAAAUAUGUCAGGUGCUGCAGAUCGGAAGAGCACACGU . Reported Kd?
# output 0.057
